run_description: Rat pharmacokinetics of OA and OC in plasma and urine after oral OA alone or with CMF1
Type: in vivo, Sprague-Dawley rats
study_conditions: male, Sprague-Dawley, in vivo, po, 30 mg/kg, oral, Group 2: OA 30 mg/kg + CMF1 at 1.95 mg/kg, bid for 5 days, read-out: t 1/2, λz
result_type: half-life (h)
Answers are plain numbers, in h.

In: Bench note: what half-life did CCC(CC)O[C@@H]1C=C(C(=O)O)C[C@H](N)[C@H]1NC(C)=O [OC, oseltamivir carboxylate] show?
Out: 2.44

Where do these numbers come from? They come from paper PMC3912631.
